Hi there, I'd appreciate the recorded T/C for every entry that follows.
Test system: P388 leukemia ip, CD2F1 mice, survival T/C
Assay: NCI In Vivo Anticancer Drug Screen. Data for tumor model P388 Leukemia (intraperitoneal) in CD2F1 (CDF1) mice
Conditions: endpoint: median survival time; dose: 50.0 mg/kg/injection; schedule: Q01DX005 (ip); vehicle: saline with Tween-80; higher = longer survival
Toxic doses and inconclusive results are not listed.

Sample `COc1ccc(C2N(c3ccccc3)CCN2c2ccccc2)cc1` — what was its T/C?
99 % of control

Sample CC1(C2CCC3(C)OC3C2)CO1 (stereo not drawn) — what was its T/C?
100 % of control

Sample O=C1C(Cl)=C(NC2C(O)OC(CO)C(O)C2O)C(=O)C(Cl)=C1NC1C(O)OC(CO)C(O)C1O (stereo not drawn) — what was its T/C?
96 % of control

Sample `CN(C)C(=S)C(C)(C)C` — what was its T/C?
111 % of control

Sample `COc1cc(C(CC(=O)O)CC(=O)O)cc(OC)c1OC` — what was its T/C?
93 % of control

Sample CN1OC(=O)OC(C)(c2ccccc2)C1=O (stereo not drawn) — what was its T/C?
98 % of control

Sample `BrC=C(Br)Br` — what was its T/C?
104 % of control

Sample `O=C(N=Nc1ccccc1)NC1CCCCC1` — what was its T/C?
100 % of control

Sample `COC(=O)c1c(C(N)=O)c(C)n(NC(=O)Nc2ccccc2)c1C` — what was its T/C?
96 % of control

Sample COc1cc(/C=N/NC(=O)C(N)Cc2ccc(O)cc2)ccc1O (stereo not drawn) — what was its T/C?
100 % of control

Sample `N#CC1=C(O)/C(=C\c2ccc(Cl)cc2)N=C1N` — what was its T/C?
88 % of control

Sample CCN(CC)CCNC1CC2CCC1(C)C2(C)C (stereo not drawn) — what was its T/C?
91 % of control

Sample `C/C(=N\NC(=S)Nc1ccc(S(N)(=O)=O)cc1)c1ccccn1` — what was its T/C?
119 % of control
